assay: in vivo; details: dog, po, 2 mg/kg
READOUT_NAME: Cmax (ng/mL)
Write down the numeric answer in ng/mL and omit the unit.

Incoming: Which value of Cmax has been reported for `O=C(N[C@H]1CCc2cc(F)cc(F)c2NC1=O)c1n[nH]c(Cc2ccccc2)n1` in the records?
Outgoing: 910

---

experiment: in vivo; settings: monkey, iv
READOUT_NAME: clearance

Incoming: Which value of clearance has been reported for `O=C(N[C@H]1CCc2cc(F)cc(F)c2NC1=O)c1n[nH]c(Cc2ccccc2)n1` in the records?
Outgoing: 6.4 mL/min/kg
